# Assay System: Receptor-type tyrosine-protein phosphatase C (Homo sapiens)
# Assay Text: In vitro inhibitory activity against the cytosolic portion of CD45 protein-tyrosine phosphatase using pNPP as the substrate
Metric Name: IC50 (nM)

Previously resolved entries follow.
{"columns": ["Smiles Record", "Units Of Measure", "IC50"],
 "data": [
  ["O=C1C(=O)c2cc(-c3ccccc3F)ccc2-c2ccccc21", "nM", 800],
  ["COC(=O)CCCCCCC(=O)Nc1ccc2c(c1)-c1ccccc1C(=O)C2=O", "nM", 700],
  ["O=C(Nc1ccc2c(c1)-c1ccccc1C(=O)C2=O)c1ccccc1F", "nM", 1200]
]}

P = O=C1C(=O)c2cc(Br)ccc2-c2ccccc21
Q = O=C1C(=O)c2cc(NC(=O)c3c(Cl)cc(Cl)cc3Cl)ccc2-c2ccccc21
Which numeric IC50 is bigger, that of P or that of Q ? Refer to your chosen item by its label in the answer.
Q

---

# Assay System: Receptor-type tyrosine-protein phosphatase C (Homo sapiens, UniProt P08575)
# Assay Text: Inhibitory concentration against CD45 protein-tyrosine phosphatase using lck-10mer as substrate
Metric Name: IC50 (nM)
Answer format: numeric, nM implied, no suffix.

Provide the documented IC50 with Receptor-type tyrosine-protein phosphatase C (Homo sapiens, UniProt P08575) as the system for `O=C(O)CNC(=O)c1ccc2c(c1)C(=O)C(=O)c1ccccc1-2`
1900

---

# Assay System: Receptor-type tyrosine-protein phosphatase C (Homo sapiens, UniProt P08575)
# Sequence (P08575 whole entry): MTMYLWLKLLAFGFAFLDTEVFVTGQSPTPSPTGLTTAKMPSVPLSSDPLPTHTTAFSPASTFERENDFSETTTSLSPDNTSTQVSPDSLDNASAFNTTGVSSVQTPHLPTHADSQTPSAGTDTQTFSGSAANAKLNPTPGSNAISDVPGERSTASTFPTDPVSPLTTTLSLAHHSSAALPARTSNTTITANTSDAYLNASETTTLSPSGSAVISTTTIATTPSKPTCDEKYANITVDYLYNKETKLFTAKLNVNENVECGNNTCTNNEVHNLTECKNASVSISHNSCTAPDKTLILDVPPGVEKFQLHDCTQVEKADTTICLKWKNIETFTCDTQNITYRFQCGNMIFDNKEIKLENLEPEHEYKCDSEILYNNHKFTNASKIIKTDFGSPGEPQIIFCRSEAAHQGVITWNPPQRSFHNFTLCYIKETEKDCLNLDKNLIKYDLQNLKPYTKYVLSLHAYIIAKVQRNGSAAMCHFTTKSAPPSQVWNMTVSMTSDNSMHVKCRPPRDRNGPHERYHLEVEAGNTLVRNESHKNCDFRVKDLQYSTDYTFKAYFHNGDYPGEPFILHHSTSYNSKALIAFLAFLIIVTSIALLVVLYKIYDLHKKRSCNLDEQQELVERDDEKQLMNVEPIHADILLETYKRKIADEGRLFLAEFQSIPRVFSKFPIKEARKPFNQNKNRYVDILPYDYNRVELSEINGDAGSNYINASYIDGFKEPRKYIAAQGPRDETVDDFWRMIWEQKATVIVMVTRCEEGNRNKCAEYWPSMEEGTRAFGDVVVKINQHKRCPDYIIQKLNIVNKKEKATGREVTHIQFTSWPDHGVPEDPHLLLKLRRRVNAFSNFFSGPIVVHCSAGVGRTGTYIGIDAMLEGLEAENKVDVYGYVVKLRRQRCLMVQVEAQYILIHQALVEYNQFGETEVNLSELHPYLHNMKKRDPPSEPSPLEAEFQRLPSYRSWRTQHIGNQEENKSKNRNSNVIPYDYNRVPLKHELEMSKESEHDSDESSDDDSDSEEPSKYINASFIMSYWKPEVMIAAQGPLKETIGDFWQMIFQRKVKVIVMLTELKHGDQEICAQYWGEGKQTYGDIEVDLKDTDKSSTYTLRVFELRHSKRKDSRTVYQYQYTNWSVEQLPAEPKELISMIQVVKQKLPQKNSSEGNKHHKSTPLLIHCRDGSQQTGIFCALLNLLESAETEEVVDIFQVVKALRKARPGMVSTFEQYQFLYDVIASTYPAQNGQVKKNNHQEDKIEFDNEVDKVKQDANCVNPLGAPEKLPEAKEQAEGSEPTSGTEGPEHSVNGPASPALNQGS
# Assay Text: In vitro inhibitory activity against the cytosolic portion of CD45 protein-tyrosine phosphatase using pNPP as the substrate
Where a SMILES comes first, the peptide text is derived from it. The star is where a group is joined. Phenanthrenequinone2carbonyl = O=C1C(=O)c2cc(C(=O)*)ccc2-c2ccccc21; X1 = O=C1C(=O)c2cc(N*)ccc2-c2ccccc21
Metric Name: IC50 (nM)

{"columns": ["Molecule", "Assay System", "IC50, nM"],
 "data": [
  ["CC(=O)NC(CCC(N)=O)C(=O)N[C@@H](CC(=O)Nc1ccc2c(c1)C(=O)C(=O)c1ccccc1-2)C(=O)O (some centres not stated)", "Receptor-type tyrosine-protein phosphatase C (Homo sapiens, UniProt P08575)", 1100],
  ["N=C(N)NCCC[C@H](NC(=O)c1ccc2c(c1)C(=O)C(=O)c1ccccc1-2)C(=O)N[C@@H](CCC(=O)O)C(=O)N1CCC[C@H]1C(=O)N[C@@H](CCCNC(=N)N)C(=O)N[C@@H](CCC(=O)O)C(=O)O (Phenanthrenequinone2carbonyl-REPRE-OH)", "Receptor-type tyrosine-protein phosphatase C (Homo sapiens, UniProt P08575)", 900],
  ["CC(C)(C)OC(=O)CNC(=O)c1ccc2c(c1)-c1ccccc1C(=O)C2=O", "Receptor-type tyrosine-protein phosphatase C (Homo sapiens, UniProt P08575)", 600],
  ["CCCC(=O)Nc1ccc2c(c1)-c1ccccc1C(=O)C2=O", "Receptor-type tyrosine-protein phosphatase C (Homo sapiens, UniProt P08575)", 800],
  ["CC(=O)N[C@@H](CCC(=O)O)C(=O)NCC(=O)N[C@@H](CCC(N)=O)C(=O)N[C@@H](CC(=O)Nc1ccc2c(c1)C(=O)C(=O)c1ccccc1-2)C(=O)O (Ac-EGQD(X1)-OH)", "Receptor-type tyrosine-protein phosphatase C (Homo sapiens, UniProt P08575)", 1500]
]}

---

# Assay System: Receptor-type tyrosine-protein phosphatase C (Homo sapiens, UniProt P08575)
# Assay Text: Inhibitory concentration against CD45 protein-tyrosine phosphatase pNPP
Metric Name: IC50 (nM)

I = O=C1C(=O)c2cccnc2-c2ccccc21
II = O=C(Nc1ccc2c(c1)C(=O)C(=O)c1ccccc1-2)c1ccccc1F
Recorded IC50 values differ for I and II ; which one is higher? // caller expects the label of the chosen entry
I
(I: 1400 nM, II: 600 nM)

---

# Assay System: Receptor-type tyrosine-protein phosphatase C (Homo sapiens, UniProt P08575)
# Assay Text: Inhibitory concentration against CD45 protein-tyrosine phosphatase using lck-10 mer as substrate
pIC50: −log10 of the molar value.
Metric Name: pIC50

{"columns": ["Smiles Record", "Val"],
 "data": [
  ["O=C(Nc1ccc2c(c1)-c1ccccc1C(=O)C2=O)c1ccccc1F", 5.24],
  ["CC(C)(C)C(=O)Nc1ccc2c(c1)C(=O)C(=O)c1ccccc1-2", 5.42]
]}

---

pIC50 values by entry
# Assay System: Receptor-type tyrosine-protein phosphatase C (Homo sapiens)
# Assay Text: Inhibitory concentration against CD45 protein-tyrosine phosphatase using lck-10 mer as substrate
pIC50: −log10 of the molar value.

{"columns": ["Smiles Record", "Assay System", "Val"],
 "data": [
  ["O=C1C(=O)c2cc(-c3ccccc3F)ccc2-c2ccccc21", "Receptor-type tyrosine-protein phosphatase C (Homo sapiens)", "< 4.52"],
  ["COc1ccccc1-c1ccc2c(c1)C(=O)C(=O)c1ccccc1-2", "Receptor-type tyrosine-protein phosphatase C (Homo sapiens)", "< 4.52"]
]}

# input for lookup
Item `O=C1C(=O)c2cccnc2-c2ccccc21` has what recorded pIC50?
5.51
